Biological target: T1, GLP-1R (INS1e assay) (UniProt P32301 22-463, limits assumed)
T1 sequence (looked up): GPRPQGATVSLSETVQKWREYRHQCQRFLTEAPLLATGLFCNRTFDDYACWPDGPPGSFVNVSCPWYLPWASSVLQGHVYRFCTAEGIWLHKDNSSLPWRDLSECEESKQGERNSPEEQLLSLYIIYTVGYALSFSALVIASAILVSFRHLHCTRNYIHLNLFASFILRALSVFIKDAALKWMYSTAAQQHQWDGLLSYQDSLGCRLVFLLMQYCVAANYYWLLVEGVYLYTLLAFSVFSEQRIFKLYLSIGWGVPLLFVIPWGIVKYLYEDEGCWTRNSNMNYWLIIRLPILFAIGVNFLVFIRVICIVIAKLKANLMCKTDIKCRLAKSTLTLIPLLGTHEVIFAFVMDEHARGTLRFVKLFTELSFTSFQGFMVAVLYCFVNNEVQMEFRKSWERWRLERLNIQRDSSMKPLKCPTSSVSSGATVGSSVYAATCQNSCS
Assay: cell-based or functional assay
Starred links: 1 amine or outer side, 2 acyl side, 3 side chain; linkers in the order of their positions; H or OH if unused. Non-standard residues stand in square brackets, D forms with d. Groups on a side chain read outwards from the residue. Primed or numbered codes have the meaning given here. No end group written: not given here. *: point of attachment. Dodecylbenzoate = dodecylbenzoyl lipid group; γGlu = O=C(O)[C@H](CCC(=O)[*:2])N[*:1]; Stearoyl = CCCCCCCCCCCCCCCCCC(=O)*; αMeF = C[C@](N)(Cc1ccccc1)C(=O)O; αMeK = C[C@](N)(CCCCN)C(=O)O; αMeS = C[C@](N)(CO)C(=O)O; PEG2′ = not defined here; Aib = CC(C)(N)C(=O)O
measurement.name: INS1e assay EC50 GLP-1 R n2 (nM)

Some binders with recorded INS1e assay EC50 GLP-1 R n2:
INSERT INTO results (binder, unit_descriptor, endpoint_value) VALUES
  ('H[Aib]EGS[αMeF]TSDV[αMeS]S[αMeF]LEGEAAK([PEG2′-PEG2′-γGlu-Stearoyl])EFIA[αMeF]VV[αMeK]GG-NH2 [SEQ ID NO 48]', 'nM', 0.871),
  ('H[Aib]EGS[αMeF]TSDVSK([PEG2′-PEG2′-PEG2′-Stearoyl])YLEGEAAEE[αMeF]IA[αMeF]VVEGG-NH2 [SEQ ID NO 62]', 'nM', 0.0837);

P. H[Aib]EGS[αMeF]TSDVSK([PEG2′-PEG2′-PEG2′-Stearoyl])YLEGEAAKE[αMeF]IA[αMeF]VVEGG-NH2 [SEQ ID NO 61]
Q. H[Aib]EGS[αMeF]TSDV[αMeS]S[αMeF]LEGEAA[αMeK]E[αMeF]IA[αMeF]VVK([PEG2′-PEG2′-Dodecylbenzoate])GG-NH2 [SEQ ID NO 180]
Between the entries labeled P and Q , whose measured INS1e assay EC50 GLP-1 R n2 is lower? Return value: the label identifying the chosen record.
P
(P: 0.0135 nM, Q: 0.0506 nM)

1. H[Aib]EGS[αMeF]TSDV[αMeS]S[αMeF]LEGEAA[αMeK]E[αMeF]IAK([PEG2′-PEG2′-γGlu-Stearoyl])VV[αMeK]GG-NH2 [SEQ ID NO 104]
2. H[Aib]EGS[αMeF]TSDV[αMeS]S[αMeF]LEGEAAK([PEG2′-PEG2′-γGlu-Stearoyl])E[αMeF]IA[αMeF]VVKGG-NH2 [SEQ ID NO 50]
3. H[Aib]EGS[αMeF]TSDV[αMeS]S[αMeF]LEGEAAK([PEG2′-PEG2′-PEG2′-Stearoyl])E[αMeF]IA[αMeF]VVKGG-NH2 [SEQ ID NO 56]
4. H[Aib]EGS[αMeF]TSDK([PEG2′-PEG2′-γGlu-Stearoyl])[αMeS]S[αMeF]LEGEAA[αMeK]E[αMeF]IA[αMeF]VV[αMeK]GG-NH2 [SEQ ID NO 119]
Hello, I need these entries ordered by INS1e assay EC50 GLP-1 R n2, highest reading first. Thanks! Give me the labels in the order the question wants.
2, 4, 1, 3
(2: 42.6 nM, 4: 1.45 nM, 1: 0.27 nM, 3: 0.077 nM)
